A collection of molecules and their measured EC50
Molecular target: human Endothelial Differentiation G-protein Coupled Receptor 3 (EDG3), S1P3 receptor (Homo sapiens, UniProt Q99500)
Construct: expressed in transfected cells; host or cells: GeneBLAzer EDG3-Ga15-NFAT-bla HEK 293T
Sequence (Q99500 whole entry): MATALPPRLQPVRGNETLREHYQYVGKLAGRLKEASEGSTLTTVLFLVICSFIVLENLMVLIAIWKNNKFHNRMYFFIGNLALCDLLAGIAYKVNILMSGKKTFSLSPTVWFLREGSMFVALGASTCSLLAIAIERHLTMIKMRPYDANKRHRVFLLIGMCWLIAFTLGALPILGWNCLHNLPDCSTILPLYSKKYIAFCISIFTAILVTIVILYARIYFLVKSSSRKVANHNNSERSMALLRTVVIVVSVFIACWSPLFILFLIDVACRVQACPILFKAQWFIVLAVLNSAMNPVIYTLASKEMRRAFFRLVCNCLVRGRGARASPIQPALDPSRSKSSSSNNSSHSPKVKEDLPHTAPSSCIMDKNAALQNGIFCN
Assay: S1P3 Assay (GeneBLAzer EDG3-Ga15-NFAT-bla HEK 293T beta-lactamase reporter, agonist dose response)
Format: cell-based
Details: EDG3-Ga15-NFAT-bla HEK 293T cells, blue/green emission ratio, 10 point dose response, free base or salt form; read-out: pEC50 (S1P3 assay) (converted)
Where a name gives a salt, the structure may show the parent alone.

| Molecule | EC50 |
| --- | --- |
| CCc1c(CCN2CC[C@H](C(=O)O)C2)cccc1-c1nnc(-c2ccc(CC(C)C)c(C#N)c2)s1 [Example 62] | > 3.16 µM |
| COc1c(CCN2CCC(C(=O)O)CC2)cccc1-c1nsc(-c2ccc(OC(C)C)c(Cl)c2)n1 [Example 73, trifluoroacetate] | > 3.16 µM |
| CCc1c(CN2CCC(C(=O)O)C2)cccc1-c1nnc(-c2ccc(CC(C)C)c(C#N)c2)s1 (stereo not shown) [Example 48] | > 3.16 µM |
| CCc1c(CN2CC(C(=O)O)C2)cccc1-c1cnc(-c2ccc(OC(C)C)c(C#N)c2)s1 [Example 38, trifluoroacetate] | > 10 µM |
